Measured IC50 of individual entries
- Study Target: His-tagged CRBN-DDB1 complex (Homo sapiens (Human), UniProt Q96SW2)
- Sequence (Q96SW2 whole entry): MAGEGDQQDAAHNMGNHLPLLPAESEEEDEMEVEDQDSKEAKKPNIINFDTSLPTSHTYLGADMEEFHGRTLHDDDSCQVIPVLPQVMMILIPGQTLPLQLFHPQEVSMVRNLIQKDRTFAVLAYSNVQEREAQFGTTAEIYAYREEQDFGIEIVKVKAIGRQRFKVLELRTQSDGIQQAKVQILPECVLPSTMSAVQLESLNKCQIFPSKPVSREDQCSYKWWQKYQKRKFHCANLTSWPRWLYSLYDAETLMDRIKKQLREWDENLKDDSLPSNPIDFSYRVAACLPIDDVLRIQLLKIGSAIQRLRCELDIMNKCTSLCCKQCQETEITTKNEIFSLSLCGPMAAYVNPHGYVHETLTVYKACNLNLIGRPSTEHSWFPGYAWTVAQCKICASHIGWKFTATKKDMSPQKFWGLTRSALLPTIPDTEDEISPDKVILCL
- Sequence (Q16531 whole entry partner): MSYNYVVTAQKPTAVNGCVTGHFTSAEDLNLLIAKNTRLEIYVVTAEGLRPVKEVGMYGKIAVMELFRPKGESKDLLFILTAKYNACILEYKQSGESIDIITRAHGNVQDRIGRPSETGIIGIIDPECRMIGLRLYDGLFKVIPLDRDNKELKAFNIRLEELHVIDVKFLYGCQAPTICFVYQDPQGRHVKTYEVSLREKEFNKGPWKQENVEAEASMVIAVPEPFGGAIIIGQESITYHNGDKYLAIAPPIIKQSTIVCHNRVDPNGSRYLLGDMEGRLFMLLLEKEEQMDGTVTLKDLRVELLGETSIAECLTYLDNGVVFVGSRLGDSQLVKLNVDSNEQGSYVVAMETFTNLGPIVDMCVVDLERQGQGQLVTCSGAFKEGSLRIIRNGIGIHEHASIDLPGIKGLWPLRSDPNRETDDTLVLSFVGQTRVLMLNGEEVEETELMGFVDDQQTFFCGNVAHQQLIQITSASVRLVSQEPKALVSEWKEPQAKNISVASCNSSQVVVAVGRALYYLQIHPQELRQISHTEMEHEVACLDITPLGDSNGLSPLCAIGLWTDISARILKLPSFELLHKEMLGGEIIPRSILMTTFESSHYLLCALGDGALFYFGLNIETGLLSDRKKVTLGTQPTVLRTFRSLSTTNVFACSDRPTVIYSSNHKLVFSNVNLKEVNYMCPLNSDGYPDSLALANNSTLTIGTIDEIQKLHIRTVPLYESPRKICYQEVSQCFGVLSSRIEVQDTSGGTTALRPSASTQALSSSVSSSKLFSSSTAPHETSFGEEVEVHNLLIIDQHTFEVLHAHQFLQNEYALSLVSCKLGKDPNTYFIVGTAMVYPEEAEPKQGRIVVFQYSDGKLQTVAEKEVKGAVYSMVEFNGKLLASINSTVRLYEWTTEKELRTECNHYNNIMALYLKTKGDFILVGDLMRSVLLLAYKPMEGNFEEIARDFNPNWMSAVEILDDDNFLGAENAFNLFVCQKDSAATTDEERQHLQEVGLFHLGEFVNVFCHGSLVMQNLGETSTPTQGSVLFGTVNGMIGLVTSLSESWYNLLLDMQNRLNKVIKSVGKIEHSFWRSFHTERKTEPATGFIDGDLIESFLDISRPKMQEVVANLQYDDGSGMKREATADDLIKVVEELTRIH
- Procedure Summary: Time-resolved fluorescence resonance energy transfer (TR-FRET) assay, displacement of Cy5-labeled thalidomide
- Format: binding
- Stated Conditions: read-out: CRBN HTRF IC50
Experimental Endpoint: IC50

| Compound | Experimental Endpoint | Val |
| --- | --- | --- |
| O=C1CCC(n2c3ccccc3c3ccccc32)C(=O)N1 (centres unmarked) | IC50 | 10 to 30 µM |
| O=C1CCC(n2c3cnccc3c3cccnc32)C(=O)N1 (centres unmarked) | IC50 | > 100 µM |
| Nc1ccc2c3ccccc3n(C3CCC(=O)NC3=O)c2n1 (centres unmarked) | IC50 | < 10 µM |
| O=C1CCC(n2c3ccc(NCCOCCOCCOCc4ccccc4)cc3c3cccnc32)C(=O)N1 (centres unmarked) | IC50 | < 10 µM |
| O=C1CCC(n2c3ccccc3c3ccc(C(F)(F)F)nc32)C(=O)N1 (centres unmarked) | IC50 | 10 to 30 µM |
| Nc1ccc2c(c1)c1cccnc1n2C1CCC(=O)NC1=O (centres unmarked) | IC50 | < 10 µM |
| O=C1CCC(n2c3c(c4cccnc42)CN(C(=O)CCCCCCCCO)CC3)C(=O)N1 (centres unmarked) | IC50 | 30 to 100 µM |
| CCNC(=O)Nc1ccc2c(c1)c1cccnc1n2C1CCC(=O)NC1=O (centres unmarked) | IC50 | < 10 µM |
| O=C1CCC(n2c3ccccc3c3c(C#CCOCCOCCOCc4ccccc4)ccnc32)C(=O)N1 (centres unmarked) | IC50 | < 10 µM |
| CN(CCCOCC#Cc1ccc2c(c1)c1cccnc1n2C1CCC(=O)NC1=O)C(=O)OC(C)(C)C (centres unmarked) | IC50 | 10 to 30 µM |
| CC(=O)Nc1ccc2c(c1)c1cccnc1n2C1CCC(=O)NC1=O (centres unmarked) | IC50 | < 10 µM |
